# reported OD 450 nm; entries follow
Biological target: recombinant cynomolgus Aggrecan G1-IGD-G2 (cynomolgus)
Assay: periplasmic extract ELISA

binder	unit info	OD 450 nm
C0101PMP606A07 (VHH, not shown: large carriers) VHH: DVQLVESGGGLVQPGGSLRLSCVASGRTFSIYGMGWFRQAPGKEREFVAAINGGSRTYYADSVKGRFTISRDNSKNTVYLQMNSLRPEDTAVYYCAADRSGYGTSLDWWYDYWGQGTLVTVSS	OD 450 nm	2.41
C0101PMP609C09 (VHH, not shown: large carriers) VHH: DVQLVESGGGLVQPGGSLRLSCAASGTIFSINVMGWYRQAPGKEREFVAAITTGGRTNYADSVKGRFTISRDNSKNTVYLQMNSLRPEDTAVYYCNAEVTTGWVGYSWYDYWGQGTMVTVSS	OD 450 nm	1.83
C0101PMP102G11 (VHH, not shown: large carriers) VHH: EVQLVESGGGLVQAGGSLRLSCAASGRSFSSYAMGWFRQAPGKEREFVSIISWSGGSTVYADSVKGRFTISRDNAKNTVYLQMNSLKPEDTAIYYCAAGRLYRATPRPADFGSWGQGTQVTVSS	OD 450 nm	0.6
C0101PMP117G09 (VHH, not shown: large carriers) VHH: EVQLVESGGGSALPGGSLRLSCAASGITFSSRYMRWYRQAPGRQRELVAAISSGGRTDYVDSVRGRFTLSINNAKNTVYLQMNDLKPEDTAVYYCYRPRMYVDGTYEKELWGQGTLVTVSS	OD 450 nm	2.21
C0101PMP113A01 (VHH, not shown: large carriers) VHH: EVQLVESGGGLVQPGGSLRLSCSASGFTFSGSWMFWVRQAPGKDYEWVASINSSGGRTYYDDSVKGRFTISRDSAKNTLYLEMNNLKPEDTALYFCARSPRVGSWGQGTQVTVSS	OD 450 nm	2.57
C0101PMP608A05 (VHH, not shown: large carriers) VHH: DVQLVESGGGLVQPGGSLRLSCAASGRTFSTYTMGWFRQAPGKEREFVAAISWSGGTTYYADSVKGRFTISRDNSKNTVYLQMNSLRPEDTAVYYCAARPRYYYYSLYSYDYWGQGTLVTVSS	OD 450 nm	2.48
C0101PMP606A05 (VHH, not shown: large carriers) VHH: DVQLVESGGGLVQPGGSLRLSCVASGRTFSIYTMGWFRQAPGKEREFVAAISWSGGRTYYADSVKGRFTISRDNSKNTVYLQMNSLRPEDTAVYYCTAYTGRSYGSYDYWGQGTLVTVSS	OD 450 nm	1.24
C0101PMP112A01 (VHH, not shown: large carriers) VHH: EVQLVESGGGLVQTGGSLRLSCVASGRAFSNYIMGWFRQAPGKERDFVAAINWNGVTTHYTDSVKGRFTISRDNAKSTSYLQMDSLKPDDTAVYFCAARGTVYSRTYGVSEEGYMYWGQGTQVTVSS	OD 450 nm	2.5

Data origin, for the record: patent US20200140532A1
